System: NF-κB activation
Experiment: NF-κB activation reporter assay (pNFκB-Luc luciferase) under TNF-α stimulation
Format: cell-based, human
Conditions: Homo sapiens; Concentration of the agent: 1 μg/mL; HepG2 or HeLa cells, TNF-α 40 ng/ml, 4 hours; read-out: The rate of inhibitory activity against NF-κB activation (%)
REPORTED_PROPERTY: inhibition at 1 µg/mL (%)
Respond with the bare value in %.

Consider the worked cases shown below.
{"CHEM_SMILES": "O=C(Nc1ccc(F)c(C(F)(F)F)c1)c1cc(Cl)ccc1O", "RESULT_NUMBER": 94.7}
{"CHEM_SMILES": "Cc1ccc(C(F)(F)F)cc1NC(=O)c1cc(Cl)ccc1O", "RESULT_NUMBER": 93.8}
{"CHEM_SMILES": "O=C(Nc1cc(C(F)(F)F)cc(C(F)(F)F)c1)c1cc(-n2cccc2)ccc1O", "RESULT_NUMBER": 93.8}

# return recorded inhibition at 1 µg/mL for entry `O=C(Nc1cc(C(F)(F)F)ccc1[N+](=O)[O-])c1cc(Cl)ccc1O` 86.3

# return recorded inhibition at 1 µg/mL for entry `CCOC(=O)c1c[nH]c2c(NC(=O)c3ccccc3OC(C)=O)cccc12` 61.7

# return recorded inhibition at 1 µg/mL for entry `O=C(Nc1cc(C(F)(F)F)cc(C(F)(F)F)c1)c1cc(C(F)(F)C(F)(F)F)ccc1O` 93.3

# return recorded inhibition at 1 µg/mL for entry `O=C(Nc1cc(C(F)(F)F)cc(C(F)(F)F)c1)c1cc(-c2ccccc2)ccc1O` 91.8

# return recorded inhibition at 1 µg/mL for entry `O=C(Nc1cc(C(F)(F)F)cc(C(F)(F)F)c1)c1ccc2ccccc2c1O` 89.6

---

Tested on: NF-κB activation
Assay: NF-κB activation reporter assay (pNFκB-Luc luciferase) under TNF-α stimulation
Format: cell-based, human
Settings: Concentration of the agent: 10 μg/mL; HepG2 or HeLa cells, TNF-α 40 ng/ml, 4 hours
REPORTED_PROPERTY: The rate of inhibitory activity against NF-κB activation (%)
Respond with the bare value in %.

Consider the worked cases shown below.
{"COMPOUND": "O=C(Nc1ccc(S(=O)(=O)F)cc1)c1ccc2ccccc2c1O [Compound 22]", "RESULT_NUMBER": 92.9}
{"COMPOUND": "O=C(c1cc(Br)ccc1O)N1CCCc2ccc(C(F)(F)F)cc21 [Compound 17]", "RESULT_NUMBER": 96.5}
{"COMPOUND": "CC(=O)Oc1ccccc1C(=O)Nc1cc(C(F)(F)F)cc(C(F)(F)F)c1 [Compound 95]", "RESULT_NUMBER": 97.1}
{"COMPOUND": "O=C(Nc1nnc(C(F)(F)F)s1)c1cc(Br)ccc1O [Compound 41]", "RESULT_NUMBER": 90.3}
{"COMPOUND": "O=S(=O)(Nc1cc(Cl)ccc1O)c1cc(Cl)cc(Cl)c1 [Compound 13]", "RESULT_NUMBER": 63.8}

# return recorded The rate of inhibitory activity against NF-κB activation (%) for entry O=C(Nc1nnc(C(F)(F)F)s1)c1ccccc1O [Compound 40] 81.9

# return recorded The rate of inhibitory activity against NF-κB activation (%) for entry CC(=O)Oc1ccc(Cl)cc1C(=O)Nc1cc2ccccc2[nH]1 [Compound 44] 65.8
